Source of measurements: the supplement of paper PMC10702517

- method-summary: chemical recovery by SPE of plasma after PDMS sampling; higher = better extraction
- measurement-setup: pooled human plasma; extraction method: HLB SPE of plasma after PES; equilibration time (d): 3

molecule	chemical recovery by SPE of plasma (%)
CCNc1nc(NCC)nc(SC)n1	5.73
CCc1cccc(C)c1NC(=O)CS(=O)(=O)O [Metolachlor CGA 368-208]	46.1
NC(=O)c1ccc(N)cc1 [4-Aminobenzamide]	5.92
c1ccc2c(c1)Cc1cc3ccccc3cc1-2	2.82
O=c1c(-c2ccc(O)cc2)coc2cc(O)cc(O)c12	50
CCCCc1nc(Cl)c(CO)n1Cc1ccc(-c2ccccc2-c2nnn[nH]2)cc1	50.8
CCOc1nc2cccc(C(=O)O)c2n1Cc1ccc(-c2ccccc2-c2nnn[nH]2)cc1	50.1
CCCCNS(=O)(=O)c1ccccc1 [N-Butylbenzenesulfonamide]	17.5

---

- method-summary: chemical recovery from spiked human plasma; higher = better extraction
- measurement-setup: pooled human plasma; extraction method: PES+SPE (3 d PDMS equilibration then HLB SPE)
Output yes (1) for chemical recovery not less than 50%; output no (0) otherwise.

compound	class-label
Cc1ccc2[nH]nnc2c1	yes (1)
S=C1NCCN1	no (0)
C[C@@H](O)CCCCn1c(=O)c2c(ncn2C)n(C)c1=O	no (0)
CN1COCN(Cc2cnc(Cl)s2)/C1=N\[N+](=O)[O-]	yes (1)
Cc1ccccc1NC(=N)Nc1ccccc1C	no (0)
Cc1cccc(C)c1N(Cn1cccn1)C(=O)C[S+](C)[O-] (stereo not given)	no (0)
Oc1ccc(Cl)c2cccnc12 [5-Chloro-8-hydroxyquinoline]	no (0)
Oc1ccccc1-c1ccccc1O [2,2'-Dihydroxybiphenyl]	no (0)
C[N+]1(C)CCCCC1 [Mepiquat]	no (0)
Cc1c(Cl)cccc1Nc1ccccc1C(=O)O	yes (1)
Brc1ccc(Oc2c(Br)cc(Br)cc2Br)c(Br)c1	yes (1)
Cc1ccc(NC(=O)N(C)C)cc1Cl	yes (1)
CC(C)OC(=O)Nc1cccc(Cl)c1	no (0)
CCc1cccc(C)c1N(C(=O)CS(=O)(=O)O)C(C)COC (stereo not given)	no (0)
NC(=O)c1ccc(N)cc1 [4-Aminobenzamide]	no (0)
CCc1cc(C)cc(CC)c1-c1c(OC(=O)C(C)(C)C)n2n(c1=O)CCOCC2	no (0)
Oc1ccc(Cl)cc1Cl	no (0)
CCNC(=O)c1cccc(C)c1 [N-Ethyl-3-methylbenzamide]	no (0)
Clc1ccc(Cl)c(-c2cc(Cl)c(Cl)cc2Cl)c1	yes (1)
N#CCNC(=O)c1cnccc1C(F)(F)F	yes (1)
c1ccc2c(c1)[nH]c1ccncc12	no (0)
CC(C)C1(C)N=C(c2ncccc2C(=O)O)NC1=O (stereo not given)	no (0)
CC(c1ccc(O)cc1)c1ccc(O)cc1	yes (1)
CC(=O)c1cc2c(cc1C)C(C)(C)C(C)CC2(C)C (stereo not given) [Tonalide]	no (0)
O=c1[nH]sc2ccccc12	no (0)
O=S(=O)(O)C(F)(F)C(F)(F)C(F)(F)C(F)(F)C(F)(F)C(F)(F)F	no (0)
CCCCOP(=O)(O)OCCCC [Di-n-butyl-phosphate]	no (0)
O=P(O)(O)Oc1ccccc1 [Phenylphosphate]	no (0)
CCCCC(CC)COP(=O)(O)OCC(CC)CCCC (stereo not given) [Bis(2-ethylhexyl)phosphate]	no (0)

---

- method-summary: chemical recovery by SPE of plasma after PDMS sampling; higher = better extraction
- measurement-setup: pooled human plasma; extraction method: HLB SPE of plasma after PES; equilibration time (d): 1

compound	chemical recovery by SPE of plasma / %
Cc1cccc(C(=O)O)c1N(Cn1cccn1)C(=O)C(=O)O	42
CC1CCc2cc(F)cc3c(=O)c(C(=O)O)cn1c23 (stereo not drawn)	43.1
CC[C@H]1OC(=O)[C@H](C)[C@@H](O[C@H]2C[C@@](C)(OC)[C@@H](O)[C@H](C)O2)[C@H](C)[C@@H](O[C@@H]2O[C@H](C)C[C@H](N(C)C)[C@H]2O)[C@](C)(O)C[C@@H](C)/C(=N\OCOCCOC)[C@H](C)[C@@H](O)[C@]1(C)O	28.8
c1ccc2c(c1)Cc1cc3ccccc3cc1-2	1.71
CCCSc1ccc2[nH]c(NC(=O)OC)nc2c1	5.86
Nc1cnn(-c2ccccc2)c(=O)c1Cl	53.7
Fc1ccc([C@]2(Cn3cncn3)O[C@H]2c2ccccc2Cl)cc1 (racemic)	0.968
c1ccc2c(c1)-c1ccc3ccc4cccc5cc-2c1c3c45	1.57
CCNc1nc(Cl)nc(NC(C)C)n1	6.06
CCNS(=O)(=O)c1ccccc1C [N-Ethyl-o-toluenesulfonamide]	19.8
O=[N+]([O-])c1ccc(O)c([N+](=O)[O-])c1	49.4
O=[N+]([O-])c1cc[n+]([O-])c2ccccc12 [4-Nitroquinoline-1-oxide]	15.1
Clc1ccc(Cl)c(-c2cccc(Cl)c2Cl)c1	1.35

---

The reader will find reported chemical recovery values listed item by item below.
- method-summary: chemical recovery from spiked human plasma; higher = better extraction
- measurement-setup: pooled human plasma; extraction method: PES+SPE (3 d PDMS equilibration then HLB SPE)

compound	chemical recovery
O=C(O)CCC(=O)c1ccc(F)cc1	47.1%
CC(=O)NCCNC(C)=O	0.534%
CCC1(c2ccccc2)C(=O)NCNC1=O	41.5%
COc1cc([N+](=O)[O-])ccc1O	45.3%
Clc1cc(Cl)c(-c2cc(Cl)c(Cl)cc2Cl)cc1Cl	62.9%
CCOC(=O)c1cn2nc(OP(=S)(OCC)OCC)cc2nc1C	55.7%
O=c1c(-c2ccc(O)cc2)coc2cc(O)cc(O)c12	55.5%
CC1=CC(=O)NS(=O)(=O)O1	11.2%
O=C(O)C(F)(F)C(F)(F)F	2.17%
O=C(O)c1ccccc1C(=O)OCc1ccccc1 [Monobenzyl-phthalate]	59.6%
O=C(O)CCC(F)(F)C(F)(F)C(F)(F)F	2.63%
CC(C1=C(CCN(C)C)Cc2ccccc21)c1ccccn1 (stereo not drawn)	0.267%
CC[C@H]1OC(=O)[C@H](C)[C@@H](O[C@H]2C[C@@](C)(OC)[C@@H](O)[C@H](C)O2)[C@H](C)[C@@H](O[C@@H]2O[C@H](C)C[C@H](N(C)C)[C@H]2O)[C@](C)(OC)C[C@@H](C)C(=O)[C@H](C)[C@@H](O)[C@]1(C)O	30.2%

---

- method-summary: chemical recovery into PDMS from spiked human plasma; higher = better extraction
- measurement-setup: pooled human plasma; extraction method: PES with PDMS; equilibration time (d): 3
The reader will find reported chemical recovery into PDMS values listed item by item below.

compound	unit-string	chemical recovery into PDMS
O=P(OC(CCl)CCl)(OC(CCl)CCl)OC(CCl)CCl	%	37.4
CCNS(=O)(=O)c1ccccc1C [N-Ethyl-o-toluenesulfonamide]	%	23.2
O=C(/C=C/C=C/c1ccc2c(c1)OCO2)N1CCCCC1	%	39.3
CN(C/C=C/C#CC(C)(C)C)Cc1cccc2ccccc12	%	0.065
Cc1cc(C2CCCCC2)n(O)c(=O)c1	%	20
ClC1=C(Cl)C2(Cl)C3C4C=CC(C4)C3C1(Cl)C2(Cl)Cl (centres undefined)	%	90.4
CCOP(=O)(OCC)OC(=CCl)c1ccc(Cl)cc1Cl	%	44.3
CCOC1Oc2ccc(OS(C)(=O)=O)cc2C1(C)C (centres undefined) [Ethofumesate]	%	42.3
CC(C)(C)C(=O)C(Oc1ccc(Cl)cc1)n1ccnc1 (centres undefined)	%	40

---

The reader will find reported chemical recovery values listed item by item below.
- method-summary: chemical recovery from spiked human plasma; higher = better extraction
- measurement-setup: pooled human plasma; extraction method: SPE only (HLB 96-well), PES comparison experiment

compound	unit-string	chemical recovery
CSc1nc(NC2CC2)nc(NC(C)(C)C)n1 [Irgarol]	%	44.2
CC1(C)CCC(Cc2ccc(Cl)cc2)C1(O)Cn1cncn1 (stereo not given) [Metconazole]	%	46.3
CC[C@H]1OC(=O)[C@H](C)[C@@H](O[C@H]2C[C@@](C)(OC)[C@@H](O)[C@H](C)O2)[C@H](C)[C@@H](O[C@@H]2O[C@H](C)C[C@H](N(C)C)[C@H]2O)[C@](C)(OC)C[C@@H](C)C(=O)[C@H](C)[C@@H](O)[C@]1(C)O [Clarithromycin]	%	44.1
CC(Cc1ccc(C(C)(C)C)cc1)CN1CCCCC1 (stereo not given) [Fenpropidin]	%	44.5
Cc1cnc2c(C(=O)O)c(Cl)ccc2c1 [Quinmerac]	%	52.2

---

- method-summary: chemical recovery from spiked human plasma; higher = better extraction
- measurement-setup: pooled human plasma; extraction method: solvent precipitation (ACN + hexane)
readout-type: chemical recovery (%)

molecule	unit-string	experimental-result
Cc1ccc2ccc3ccc(C)cc3c2c1	%	71.5
O=S(=O)(O)NC1CCCCC1 [Cyclamate]	%	71.8
COc1ccccc1OCC(O)COC(N)=O (centres undefined)	%	70.6
Cc1cc(=O)oc2cc(N)ccc12	%	70.4
CC[C@H](C)[C@H]1O[C@]2(C=C[C@@H]1C)C[C@@H]1C[C@@H](C/C=C(\C)[C@@H](O[C@H]3C[C@H](OC)[C@@H](O[C@H]4C[C@H](OC)[C@@H](NC)[C@H](C)O4)[C@H](C)O3)[C@@H](C)/C=C/C=C3\CO[C@@H]4[C@H](O)C(C)=C[C@@H](C(=O)O1)[C@]34O)O2	%	69
CCOC(=O)[C@H](CCc1ccccc1)N[C@@H](C)C(=O)N1CCC[C@H]1C(=O)O	%	70.5
Nc1ccc(-c2ccc(N)c(Cl)c2)cc1Cl	%	72
CCCOC(=O)c1ccc(O)cc1	%	70.6
CCCSc1ccc2[nH]c(NC(=O)OC)nc2c1	%	59.7
